# Test system: Raji
# experimental-protocol: Inhibition of tumor promotion in human Raji cells assessed as TPA-induced Epstein-Barr virus early antigen activation at 500 mol ratio/TPA after 48 hrs by indirect immunofluorescence analysis relative to TPA alone
# Format: functional
# Design: scale not given: the % may be the effect or the level left
Activity reference
Answer format: numeric, % implied, no suffix.

compound | units | Activity
Nc1c(-c2nc3ccccc3[nH]2)cc(-c2ccccc2)n1-c1ccncc1 | % | 46.9

Report Activity for Nc1c(-c2nc3ccccc3[nH]2)cc(-c2ccccc2)n1-c1cccc(Cl)c1 please. 48.3

Recorded Activity of Nc1c(-c2nc3ccccc3[nH]2)cc(-c2ccccc2)n1-c1cccc(Br)c1 , please. 49.9

I would be grateful if you could share the reported Activity for O=C1NC2=Nc3ccccc3N(Cc3nc4ccccc4[nH]3)C2=Nc2ccccc21 . 53.1

For the compound shown here, N#Cc1cc(-c2ccccc2)n(Cc2nc3ccccc3[nH]2)c1N , give the reported Activity. 48.3

# Activity lookup, item O=C1NC2=Nc3ccccc3NC2=Nc2ccccc21 54.6

Requested field: Activity. Item: C=CCn1c(CN2C3=Nc4ccccc4C(=O)NC3=Nc3ccccc32)nc2ccccc21 45.8

Look at this compound and give its reported Activity. Nc1c(-c2nc3ccccc3[nH]2)cc(-c2ccccc2)n1-c1ccccn1 47.3

Suppose we examine the compound CCOC(=O)Cn1c(CN2C3=Nc4ccccc4C(=O)NC3=Nc3ccccc32)nc2ccccc21 ; what Activity value has been reported? 43.7

Please give the measured Activity for this compound: Nc1nc2ccccc2[nH]c1=O 46.3

Which Activity is listed for N#Cc1cc(-c2ccccc2)n(-c2nc3ccccc3[nH]2)c1N ? 49.6

For the compound shown here, Nc1c(-c2nc3ccccc3[nH]2)cc(-c2ccccc2)n1-c1ccc(Br)cc1 , give the reported Activity. 48

Returns the measured Activity for the input compound. Input: Nc1c(-c2nc3ccccc3[nH]2)cc(-c2ccccc2)n1-c1ccc(Cl)cc1 50.3

Requested field: Activity. Item: Nc1c(-c2nc3ccccc3[nH]2)cc(-c2ccccc2)n1-c1nc2ccccc2[nH]1 48.2

What measured Activity goes with Nc1c(-c2nc3ccccc3[nH]2)cc(-c2ccccc2)n1Cc1nc2ccccc2[nH]1 ? 48.3

Quick one: Activity for CC1(C)CC[C@]2(C(=O)O)CC[C@]3(C)C(=CC[C@@H]4[C@@]5(C)CC[C@H](O)C(C)(C)[C@@H]5CC[C@]43C)[C@@H]2C1 [OLEANOLIC_ACID] ? 30
